These measurements were taken from ChEMBL document CHEMBL4043307.

system: Liver; test: Intrinsic clearance in human liver microsomes at 1 uM after 30 mins by LC-MS/MS method; format: ADME, microsome; conditions: 0.5 h
reportedEndpoint: CLH (µL/min/mg)

Solved entries:
[[record]]
molecule = "[2H]C1([2H])OC(N)=N[C@]12c1cc(-c3cncnc3)ccc1C[C@]21CC[C@@H](OC)[C@H](C)C1"
reportedendpoint = "CLH"
unitabbreviation = "µL/min/mg"
endpointvalue = 52.4

[[record]]
molecule = "[2H]C1([2H])OC(N)=N[C@]12c1cc(-c3cc(C#N)cc(OC)c3)ccc1C[C@]21CC[C@@H](OC)CC1"
reportedendpoint = "CLH"
unitabbreviation = "µL/min/mg"
endpointvalue = 15.7

[[record]]
molecule = "[2H]C1([2H])OC(N)=N[C@]12c1cc(-c3cncnc3)ccc1C[C@@]21CC[C@H](OC)[C@@H](CC)C1"
reportedendpoint = "CLH"
unitabbreviation = "µL/min/mg"
endpointvalue = 153

[[record]]
molecule = "COc1cc(C#N)cc(-c2ccc3c(c2)[C@@]2(COC(N)=N2)[C@]2(CC[C@H](OC)CC2)C3)c1"
reportedendpoint = "CLH"
unitabbreviation = "µL/min/mg"
endpointvalue = 13.9


[a] [2H]C1([2H])OC(N)=N[C@]12c1cc(-c3cncnc3)ccc1C[C@]21CC[C@@H](OC)[C@H](CC)C1
[b] CO[C@H]1CC[C@]2(CC1)Cc1ccc(-c3cc(Cl)cc(C#N)c3)cc1[C@@]21COC(N)=N1
Exercise: Please state the entry with greater CLH among a and b . Label of pick, please.
Solution: a
(a: 149 µL/min/mg, b: 11.1 µL/min/mg)

[P] [2H]C1([2H])OC(N)=N[C@]12c1cc(-c3cncnc3)ccc1C[C@@]21C[C@@H](C)[C@H](OC)[C@@H](C)C1 (racemic)
[Q] [2H]C1([2H])OC(N)=N[C@]12c1cc(-c3cc(Cl)cc(C#N)c3)ccc1C[C@]21CC[C@@H](OC)CC1
Exercise: Out of P and Q , name the one with the higher CLH. Bench note: the answer is the label of the chosen record.
Solution: P

====

molecular target: Voltage-gated inwardly rectifying potassium channel KCNH2 (Homo sapiens); test: Inhibition of human ERG
Sequence (Q12809 whole entry): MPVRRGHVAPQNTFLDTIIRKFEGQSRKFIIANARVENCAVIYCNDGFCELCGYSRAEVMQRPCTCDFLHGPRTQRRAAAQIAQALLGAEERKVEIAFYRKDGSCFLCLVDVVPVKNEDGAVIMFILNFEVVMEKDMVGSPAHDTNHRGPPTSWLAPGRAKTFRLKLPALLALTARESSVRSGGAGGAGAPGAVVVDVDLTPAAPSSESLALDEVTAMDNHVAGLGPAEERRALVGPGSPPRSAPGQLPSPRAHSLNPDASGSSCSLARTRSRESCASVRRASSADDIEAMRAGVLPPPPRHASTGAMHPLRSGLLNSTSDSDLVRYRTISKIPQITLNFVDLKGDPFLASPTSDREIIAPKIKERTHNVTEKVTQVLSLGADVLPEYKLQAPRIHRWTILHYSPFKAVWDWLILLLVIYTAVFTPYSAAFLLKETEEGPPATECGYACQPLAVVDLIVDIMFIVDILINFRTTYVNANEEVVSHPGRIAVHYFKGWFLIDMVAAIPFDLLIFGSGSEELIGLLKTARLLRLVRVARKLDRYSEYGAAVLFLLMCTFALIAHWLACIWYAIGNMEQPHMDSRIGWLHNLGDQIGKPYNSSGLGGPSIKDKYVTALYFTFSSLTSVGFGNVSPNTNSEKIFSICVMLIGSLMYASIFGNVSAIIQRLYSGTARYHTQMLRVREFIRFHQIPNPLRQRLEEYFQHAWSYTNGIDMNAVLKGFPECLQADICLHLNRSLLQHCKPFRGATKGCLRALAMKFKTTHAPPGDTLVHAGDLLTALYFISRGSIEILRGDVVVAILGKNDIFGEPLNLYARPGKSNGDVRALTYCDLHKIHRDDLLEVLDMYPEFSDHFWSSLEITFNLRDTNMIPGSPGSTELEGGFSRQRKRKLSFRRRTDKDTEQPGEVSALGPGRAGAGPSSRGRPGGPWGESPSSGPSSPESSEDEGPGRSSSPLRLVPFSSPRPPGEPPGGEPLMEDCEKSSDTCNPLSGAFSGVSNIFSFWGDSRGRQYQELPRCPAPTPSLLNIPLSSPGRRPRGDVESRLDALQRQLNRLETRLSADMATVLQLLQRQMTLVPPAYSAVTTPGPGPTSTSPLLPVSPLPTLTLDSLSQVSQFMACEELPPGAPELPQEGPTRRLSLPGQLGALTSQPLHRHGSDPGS
Recorded IC50 values for a group of compounds are listed next.

[[record]]
smilesdata = "[2H]C1([2H])OC(N)=N[C@]12c1cc(-c3cncnc3)ccc1C[C@]21CC[C@@H](OC)[C@H](C)C1"
reportedendpoint = "IC50"
endpointvalue = "> 33 µM"


Please look at the following compound next.
Exercise: Please report IC50 for the following compound: [2H]C1([2H])OC(N)=N[C@]12c1cc(-c3cncnc3)ccc1C[C@@]21CC[C@H](OC)[C@@H](C)C1
Solution: > 33 µM

====

molecular target: Beta-secretase 2 (Homo sapiens, UniProt Q9Y5Z0); test: Inhibition of human BACE2 (1 to 473 residues) using CEVNLDAEFK as substrate preincubated for 10 mins followed by substrate addition measured after 6.5 hrs by TR-FRET assay
Sequence (Q9Y5Z0 whole entry, the tested form may be a part): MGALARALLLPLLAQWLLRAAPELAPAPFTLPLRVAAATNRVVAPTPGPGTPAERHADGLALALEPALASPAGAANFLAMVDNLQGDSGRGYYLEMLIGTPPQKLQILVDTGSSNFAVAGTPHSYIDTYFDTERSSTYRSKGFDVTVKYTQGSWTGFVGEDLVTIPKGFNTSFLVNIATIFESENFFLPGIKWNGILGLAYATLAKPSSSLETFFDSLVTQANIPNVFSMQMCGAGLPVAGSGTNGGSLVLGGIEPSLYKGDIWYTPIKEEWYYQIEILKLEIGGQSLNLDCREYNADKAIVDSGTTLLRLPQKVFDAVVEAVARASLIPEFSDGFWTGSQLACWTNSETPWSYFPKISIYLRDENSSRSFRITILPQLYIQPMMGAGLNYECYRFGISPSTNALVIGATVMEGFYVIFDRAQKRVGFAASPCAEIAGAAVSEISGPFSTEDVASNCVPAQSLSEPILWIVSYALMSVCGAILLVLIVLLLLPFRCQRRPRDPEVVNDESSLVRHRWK
reportedEndpoint: IC50 (nM)
Write down the numeric answer in nM and omit the unit.

Exercise: # return recorded IC50 for entry NC1=N[C@@](c2cccc(-c3cncnc3)c2)(c2ccnc(C(F)F)c2)c2cccc(F)c21
Solution: 0.9
